Where these numbers come from: patent US11345669B2

- System: IL1-β release upon NLRP3 activation in peripheral blood mononuclear cells (PBMC)
- test-protocol: PBMC IC50 Determination Assay
- Type: cell-based
- details: Homo sapiens; PBMC from buffy coats, LPS 3 h, compound 30 min, then ATP (5 mM) or nigericin (10 μM) for 1 h; IL-1β in media by ELISA; read-out: PBMCs, IC50
pIC50: −log10 of the molar value.

# molecule, pIC50
measured = [
    ("CCOC(=O)[C@@H](Cc1cccnc1)NC(=O)Nc1c(C(C)C)cccc1C(C)C", 4.68),
    ("COC(=O)C(Cc1cccc(O)c1)NC(=O)Nc1c2c(cc3c1CCC3)CCC2 (stereo not drawn)", 5.60),
    ("COC(=O)[C@@H](Cc1cccnn1)NC(=O)Nc1c2c(cc3c1CCC3)CCC2", 5.48),
    ("CCOC(=O)C(Cc1cnoc1)NC(=O)Nc1c2c(cc3c1CCC3)CCC2 (stereo not drawn)", 5.48),
    ("COC(=O)CNC(=O)Nc1c2c(cc3c1CCC3)CCC2", 5.43),
    ("COC(=O)[C@@H](Cc1cncnc1)NC(=O)Nc1c2c(cc3c1CCC3)CCC2", 5.35),
    ("COC(=O)[C@@H](CCSC)NC(=O)Nc1c2c(cc3c1CCC3)CCC2", 5.49),
    ("CCOC(=O)C(Cc1ncco1)NC(=O)Nc1c2c(cc3c1CCC3)CCC2 (stereo not drawn)", 6.17),
    ("O=C(Nc1c2c(cc3c1CCC3)CCC2)NC(Cc1ncccn1)C(=O)O (stereo not drawn)", 4.82),
]

---

- Test system: IL1-β release upon NLRP3 activation in peripheral blood mononuclear cells (PBMC)
- test-protocol: PBMC IC50 Determination Assay
- Assay type: cell-based
- details: Homo sapiens; PBMC from buffy coats, LPS 3 h, compound 30 min, then ATP (5 mM) or nigericin (10 μM) for 1 h; IL-1β in media by ELISA; read-out: PBMCs, IC50
- Protocol: PBMC IC50 Determination Assay The compounds of the present disclosure were tested for their inhibitory activity against IL1-β release upon NLRP3 activation in peripheral blood mononuclear cells (PBMC). […] The release of IL-1β into the media was determined by a quantitative detection of IL-1β in 5 the media using an IL-1β enzyme-linked immunosorbent assay (ELISA) Ready-SET-Go!, eBioscience cat. […]
pIC50: −log10 of the molar value.
Classification field: T = pIC50 at or over 6; F = pIC50 under 6.

# compound, qualitative-label
records = [
    ("COC(=O)[C@@H](Cc1cccs1)NC(=O)Nc1c2c(cc3c1CCC3)CCC2 [Example 2CC]", "T"),
    ("COC(=O)C(Cn1cc(C)cn1)NC(=O)Nc1c2c(cc3c1CCC3)CCC2 (stereo not shown) [Example 2TT]", "F"),
    ("COC(=O)[C@@H](Cc1cnccn1)NC(=O)Nc1c2c(cc3c1CCC3)CCC2 [Example 2AF]", "T"),
    ("COC[C@@H](NC(=O)Nc1c2c(cc3c1CCC3)CCC2)C(=O)OC [Example 2II]", "F"),
    ("COC(=O)C(Cn1ccnc1)NC(=O)Nc1c2c(cc3c1CCC3)CCC2 (stereo not shown) [Example 2DD]", "F"),
    ("COC(=O)[C@@H](Cc1cccc(Nc2cc[nH]n2)c1)NC(=O)Nc1c2c(cc3c1CCC3)CCC2 [Example 2U]", "T"),
    ("COC(=O)[C@@H](Cc1ccc(O)cc1)NC(=O)Nc1c2c(cc3c1CCC3)CCC2 [Example 2Z]", "T"),
    ("COC(=O)[C@@H](Cc1cccc(N2CCCC2=O)c1)NC(=O)Nc1c2c(cc3c1CCC3)CCC2 [Example 2R]", "T"),
    ("CCOC(=O)[C@@H](Cc1cccnc1)NC(=O)Nc1cc2c(cc1C(C)C)CCC2 [Example 2AD]", "F"),
    ("COCCOC(=O)[C@@H](Cc1cccnc1)NC(=O)Nc1c2c(cc3c1CCC3)CCC2 [Example 2MM]", "F"),
    ("CCOC(=O)C(Cc1ccon1)NC(=O)Nc1c2c(cc3c1CCC3)CCC2 (stereo not shown) [Example 2AB]", "F"),
    ("CCOC(=O)[C@@H](Cc1cccnc1)NC(=O)Nc1c2c(cc3c1CCC3)CCC2 [Example 2RR]", "F"),
    ("COC(=O)[C@@H](Cc1cccc(-c2cc[nH]n2)c1)NC(=O)Nc1c2c(cc3c1CCC3)CCC2 [Example 2L]", "T"),
    ("O=C(Nc1c2c(cc3c1CCC3)CCC2)N[C@H](Cc1cccnc1)C(=O)OC1CCCC1 [Example 2PP]", "T"),
]
